system: Hs578T complex spheroid growth, percent test/control; test: Anticancer human tumor Hs578T cell line growth inhibition [AhR]; conditions: second compound 10 µM; first compound 0.00949 µM; active = viability on the fitted dose curve at most 10% of control; inactive = the rest;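 note: luminescent viability signal as a proxy for spheroid growth; spheroids exposed to agents for one week after three days of growth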
Pick one: active, inactive

Completed entries (count: 5):
compound | answerLabel
O=C(C=Cn1cnc(-c2cc(C(F)(F)F)cc(C(F)(F)F)c2)n1)NNc1cnccn1 + Cc1cncc(-c2nc(NCCc3c[nH]c4ccccc34)c3ncn(C(C)C)c3n2)c1 | active
Nc1ncn(C2CC(O)C(CO)S2)c(=O)n1 (centres undefined) + Cc1ccccc1N=Nc1ccc(NC(=O)c2ccnn2C)c(C)c1 | inactive
CCc1c2c(nc3ccc(O)cc13)-c1cc3c(c(=O)n1C2)COC(=O)[C@]3(O)CC + CC(CO)NC(=O)c1cc(-c2ccc(Cl)cc2)nn(-c2cnn(C)c2)c1=O | inactive
CCN(c1cc(-c2ccc(CN3CCOCC3)cc2)cc(C(=O)NCc2c(C)cc(C)[nH]c2=O)c1C)C1CCOCC1 + CC(CO)NC(=O)c1cc(-c2ccc(Cl)cc2)nn(-c2cnn(C)c2)c1=O | inactive
CCc1c2c(nc3ccc(O)cc13)-c1cc3c(c(=O)n1C2)COC(=O)[C@]3(O)CC + Cc1ccccc1N=Nc1ccc(NC(=O)c2ccnn2C)c(C)c1 | inactive

Write down the call the test reported for this compound. Item: O=C(C=Cn1cnc(-c2cc(C(F)(F)F)cc(C(F)(F)F)c2)n1)NNc1cnccn1 + CC(CO)NC(=O)c1cc(-c2ccc(Cl)cc2)nn(-c2cnn(C)c2)c1=O
inactive

For Nc1ncn(C2CC(O)C(CO)S2)c(=O)n1 (centres undefined) + Cc1cncc(-c2nc(NCCc3c[nH]c4ccccc34)c3ncn(C(C)C)c3n2)c1 , which call appears in the assay record?
active

Fill in: this test's call for CC(C)CC(NC(=O)C(Cc1ccccc1)NC(=O)c1cnccn1)B(O)O (centres undefined) + Cc1ccccc1N=Nc1ccc(NC(=O)c2ccnn2C)c(C)c1 is ___
inactive

Outcome? CCN(c1cc(-c2ccc(CN3CCOCC3)cc2)cc(C(=O)NCc2c(C)cc(C)[nH]c2=O)c1C)C1CCOCC1 + Cc1cncc(-c2nc(NCCc3c[nH]c4ccccc34)c3ncn(C(C)C)c3n2)c1
active

====

system: Hs578T complex spheroid growth, percent test/control; test: Anticancer human tumor Hs578T cell line growth inhibition [AhR]; settings: curve of first compound; second compound 0.1 µM;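 note: luminescent viability signal as a proxy for spheroid growth; spheroids exposed to agents for one week after three days of growth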
pIC50: −log10 of the molar value.
assayMetric: pIC50

The following molecules have reported results that may help.
molecule | reportedResult
CC1COCCN1c1cc(C2(S(C)(=N)=O)CC2)nc(-c2ccnc3[nH]ccc23)n1 (centres undefined) + Cc1cncc(-c2nc(NCCc3c[nH]c4ccccc34)c3ncn(C(C)C)c3n2)c1 | < 5.00
Cn1ncnc1C1c2n[nH]c(=O)c3cc(F)cc(c23)NC1c1ccc(F)cc1 (centres undefined) + Cc1ccccc1N=Nc1ccc(NC(=O)c2ccnn2C)c(C)c1 | < 7.00

Item Nc1ccccc1NC(=O)c1ccc(CNC(=O)OCc2cccnc2)cc1 + Cc1cncc(-c2nc(NCCc3c[nH]c4ccccc34)c3ncn(C(C)C)c3n2)c1 : provide pIC50
5.70

Give the measured pIC50 for O=C(C=Cn1cnc(-c2cc(C(F)(F)F)cc(C(F)(F)F)c2)n1)NNc1cnccn1 + Cc1ccccc1N=Nc1ccc(NC(=O)c2ccnn2C)c(C)c1
6.75

Give the reported value of pIC50 for this record: CC[C@@]1(O)C(=O)OCc2c1cc1n(c2=O)Cc2cc3c(CN(C)C)c(O)ccc3nc2-1 + CC(CO)NC(=O)c1cc(-c2ccc(Cl)cc2)nn(-c2cnn(C)c2)c1=O
< 7.00

Kindly indicate its recorded pIC50. Item: COc1ccc([C@@H](O)c2cc(-c3ncnc4cc(N5CCOCC5)ccc34)c(F)cc2Cl)nn1 + Cc1cncc(-c2nc(NCCc3c[nH]c4ccccc34)c3ncn(C(C)C)c3n2)c1
5.24

Consider the molecule COc1cc(C2c3cc4c(cc3C(OC3OC5COC(C)OC5C(O)C3O)C3COC(=O)C23)OCO4)cc(OC)c1O (centres undefined) + Cc1cncc(-c2nc(NCCc3c[nH]c4ccccc34)c3ncn(C(C)C)c3n2)c1 and give its recorded pIC50.
< 5.00

Tell me measured pIC50 for CC[C@@]1(O)C(=O)OCc2c1cc1n(c2=O)Cc2cc3c(CN(C)C)c(O)ccc3nc2-1 + Cc1ccccc1N=Nc1ccc(NC(=O)c2ccnn2C)c(C)c1 please.
< 7.00

In one line, give reported pIC50 of the entry CC1(C)CCC(CN2CCN(c3ccc(C(=O)NS(=O)(=O)c4ccc(NCC5CCOCC5)c([N+](=O)[O-])c4)c(Oc4cnc5[nH]ccc5c4)c3)CC2)=C(c2ccc(Cl)cc2)C1 + Cc1cncc(-c2nc(NCCc3c[nH]c4ccccc34)c3ncn(C(C)C)c3n2)c1 .
< 5.00

The reported measurements were obtained from PubChem BioAssay AID1919010.
